Biological target: CDK12 (Homo sapiens)
Construct: endogenous in cells; host or cells: CAL-120 human breast cancer cells (DSMZ ACC 459)
Test: CDK12 nuclear protein level: immunofluorescence/high content analysis in CAL-120 cells
Format: cell-based
Details: CAL-120 cells; 24 h; nuclear CDK12 staining intensity; median; read-out: CDK12 degradation IF DC50 - [mol/l] (median)
OBSERVED_PROPERTY: DC50 (nM)
Your answer is read as nM, so omit the unit and give the number.

Short answer please: DC50, CDK12 (Homo sapiens), entry CC1COCCC1n1nc(NCc2nc3ccccc3[nH]2)c2ncc(C3CC3)nc21 (racemic)
11.1

Another molecule to check: CC(C)(O)Cn1nc(NCc2nc3ccccc3[nH]2)c2ncc(C3CC3)nc21
99.4

Another molecule to check: CN1CCC(n2nc(NCc3nc4cc(Cl)ccc4[nH]3)c3ncc(C4CC4)nc32)CC1
11.8

Another molecule to check: O[C@H]1CC[C@H](n2nc(NCc3nc4ccccc4[nH]3)c3ncc(C4CC4)nc32)CC1
3.15

Another molecule to check: CN1CCC(n2nc(NCc3nc4c(Br)cccc4[nH]3)c3ncc(C4CC4)nc32)CC1
22.2

Another molecule to check: FC1(F)CCC(n2nc(NCc3nc4ccccc4[nH]3)c3ncc(C4CC4)nc32)CC1
162

Another molecule to check: COCCCn1nc(NCc2nc3ccccc3[nH]2)c2ncc(C3CC3)nc21
163

Another molecule to check: c1ccc2[nH]c(CNc3nn(C4CCOC4)c4nc(C5CC5)cnc34)nc2c1 (single isomer, unassigned) [Example 17]
24.8

====

Provide the recorded DC50 for the entries that follow.
Target: CDK12 (Homo sapiens, UniProt Q9NYV4)
Construct: endogenous in cells; host or cells: CAL-120 human breast cancer cells (DSMZ ACC 459)
Sequence (Q9NYV4 whole entry): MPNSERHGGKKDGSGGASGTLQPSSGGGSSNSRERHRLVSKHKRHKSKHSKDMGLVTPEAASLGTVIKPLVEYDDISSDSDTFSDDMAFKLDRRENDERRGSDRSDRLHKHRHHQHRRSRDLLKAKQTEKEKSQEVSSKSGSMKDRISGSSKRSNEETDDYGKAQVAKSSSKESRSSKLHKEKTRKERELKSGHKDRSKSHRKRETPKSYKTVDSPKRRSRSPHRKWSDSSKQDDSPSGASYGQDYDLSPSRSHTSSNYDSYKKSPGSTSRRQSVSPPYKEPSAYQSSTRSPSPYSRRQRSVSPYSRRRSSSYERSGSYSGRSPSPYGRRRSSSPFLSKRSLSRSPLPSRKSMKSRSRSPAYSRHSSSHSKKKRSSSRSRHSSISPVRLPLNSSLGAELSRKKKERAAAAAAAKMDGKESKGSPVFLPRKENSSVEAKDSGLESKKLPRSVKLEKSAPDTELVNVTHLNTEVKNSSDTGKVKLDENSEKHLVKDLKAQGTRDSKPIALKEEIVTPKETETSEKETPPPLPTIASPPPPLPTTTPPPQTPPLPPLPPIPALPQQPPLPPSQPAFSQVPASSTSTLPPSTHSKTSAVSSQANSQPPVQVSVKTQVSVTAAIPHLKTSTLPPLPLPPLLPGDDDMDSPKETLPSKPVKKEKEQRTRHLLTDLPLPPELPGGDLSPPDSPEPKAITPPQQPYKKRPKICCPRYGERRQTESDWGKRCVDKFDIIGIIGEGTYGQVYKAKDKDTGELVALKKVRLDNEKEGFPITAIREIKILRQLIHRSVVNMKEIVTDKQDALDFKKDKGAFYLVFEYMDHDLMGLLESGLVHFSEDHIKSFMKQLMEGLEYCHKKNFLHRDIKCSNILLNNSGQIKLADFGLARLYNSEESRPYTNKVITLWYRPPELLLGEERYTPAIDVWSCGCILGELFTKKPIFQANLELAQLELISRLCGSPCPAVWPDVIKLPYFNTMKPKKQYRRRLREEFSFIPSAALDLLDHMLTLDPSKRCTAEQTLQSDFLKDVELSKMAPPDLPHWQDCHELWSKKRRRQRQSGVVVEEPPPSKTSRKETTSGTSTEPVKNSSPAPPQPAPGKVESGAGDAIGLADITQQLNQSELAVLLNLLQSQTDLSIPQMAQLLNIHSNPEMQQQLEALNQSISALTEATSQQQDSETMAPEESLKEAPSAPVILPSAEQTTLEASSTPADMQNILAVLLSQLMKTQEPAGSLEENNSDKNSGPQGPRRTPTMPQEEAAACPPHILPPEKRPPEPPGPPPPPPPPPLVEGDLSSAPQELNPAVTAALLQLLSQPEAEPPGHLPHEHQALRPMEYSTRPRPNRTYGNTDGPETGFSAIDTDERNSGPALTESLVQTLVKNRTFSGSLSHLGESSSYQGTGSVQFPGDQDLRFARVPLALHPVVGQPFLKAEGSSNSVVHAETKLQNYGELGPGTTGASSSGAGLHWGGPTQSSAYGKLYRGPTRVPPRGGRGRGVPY
Sequence (O75909 whole entry partner): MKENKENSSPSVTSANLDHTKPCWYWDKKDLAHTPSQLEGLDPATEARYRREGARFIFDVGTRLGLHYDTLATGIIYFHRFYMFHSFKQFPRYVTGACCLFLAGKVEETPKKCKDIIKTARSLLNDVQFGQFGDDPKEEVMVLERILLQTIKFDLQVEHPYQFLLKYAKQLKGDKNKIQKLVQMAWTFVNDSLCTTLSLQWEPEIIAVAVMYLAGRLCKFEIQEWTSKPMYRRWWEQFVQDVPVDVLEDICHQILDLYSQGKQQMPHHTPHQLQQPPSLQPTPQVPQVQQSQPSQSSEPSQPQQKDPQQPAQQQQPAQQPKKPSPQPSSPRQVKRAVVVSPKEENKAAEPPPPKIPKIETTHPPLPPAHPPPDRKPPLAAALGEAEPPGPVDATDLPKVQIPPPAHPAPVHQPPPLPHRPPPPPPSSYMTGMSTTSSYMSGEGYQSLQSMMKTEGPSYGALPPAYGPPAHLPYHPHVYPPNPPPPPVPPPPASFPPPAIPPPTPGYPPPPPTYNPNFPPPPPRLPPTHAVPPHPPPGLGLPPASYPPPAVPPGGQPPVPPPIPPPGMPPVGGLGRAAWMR
Experiment: CDK12 nuclear protein level: immunofluorescence/high content analysis in CAL-120 cells
Assay type: cell-based
Settings: CAL-120 cells; 24 h; nuclear CDK12 staining intensity; median; read-out: CDK12 degradation IF DC50 - [mol/l] (median)
Your answer is read as nM, so omit the unit and give the number.

DC50 for CN1CCC(n2nc(NCc3nc4c(OC(F)(F)F)cccc4[nH]3)c3ncc(C4CC4)nc32)CC1 [Example 5] ?
83.4

Another compound to check: c1ccc2[nH]c(CNc3nn(C4CCOCC4)c4nc(C5CC5)cnc34)nc2c1 [Example 16]
84

Another compound to check: O[C@H]1C[C@H](n2nc(NCc3nc4ccccc4[nH]3)c3ncc(C4CC4)nc32)C1 [Example 43]
9.53

Another compound to check: Cc1ccc2[nH]c(CNc3nn(C4CCN(C)CC4)c4nc(C5CC5)cnc34)nc2c1C [Example 28]
10.6

Another compound to check: CN1CCC(n2nc(NCc3nc4cc(SC(F)(F)F)ccc4[nH]3)c3ncc(C4CC4)nc32)CC1 [Example 27]
49.1

Another compound to check: c1ccc2[nH]c(CNc3nn(C4CCOC4)c4nc(C5CC5)cnc34)nc2c1 (racemic) [Example 10]
40.8

Another compound to check: O[C@H]1C[C@@H](n2nc(NCc3nc4ccccc4[nH]3)c3ncc(C4CC4)nc32)C1 [Example 40]
2.55

Another compound to check: Cc1cccc2[nH]c(CNc3nn(C4CCN(C)CC4)c4nc(C5CC5)cnc34)nc12 [Example 8]
8.53
